The reader will find reported furin cleavage Z-score values listed item by item below.
# system.under.test: furin, P09958;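 also: purified furin at 1:10 enzyme:substrate in 50 mM HEPES pH 7.5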
# Sequence (P09958 whole entry): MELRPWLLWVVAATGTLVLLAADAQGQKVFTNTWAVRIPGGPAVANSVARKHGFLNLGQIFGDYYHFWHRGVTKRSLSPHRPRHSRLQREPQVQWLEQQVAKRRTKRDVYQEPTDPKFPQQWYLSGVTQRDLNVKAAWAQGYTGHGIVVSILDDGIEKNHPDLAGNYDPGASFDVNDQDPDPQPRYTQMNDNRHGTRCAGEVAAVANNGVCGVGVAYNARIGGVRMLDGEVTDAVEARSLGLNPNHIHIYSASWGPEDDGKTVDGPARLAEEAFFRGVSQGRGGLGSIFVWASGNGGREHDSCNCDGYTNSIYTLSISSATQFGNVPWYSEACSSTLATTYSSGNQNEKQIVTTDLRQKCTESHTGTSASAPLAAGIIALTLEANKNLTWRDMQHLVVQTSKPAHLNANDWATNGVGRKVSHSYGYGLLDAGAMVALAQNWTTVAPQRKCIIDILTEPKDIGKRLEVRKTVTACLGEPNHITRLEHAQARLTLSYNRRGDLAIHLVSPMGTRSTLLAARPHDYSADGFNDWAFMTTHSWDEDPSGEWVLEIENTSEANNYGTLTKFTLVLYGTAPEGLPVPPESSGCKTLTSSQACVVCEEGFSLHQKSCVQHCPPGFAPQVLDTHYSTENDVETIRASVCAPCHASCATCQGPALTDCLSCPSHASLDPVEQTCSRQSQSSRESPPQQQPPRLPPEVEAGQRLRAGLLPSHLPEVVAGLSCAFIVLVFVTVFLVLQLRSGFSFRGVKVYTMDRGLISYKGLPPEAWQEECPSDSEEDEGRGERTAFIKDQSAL
# assay.remarks: furin cleavage Z-score vs untreated control; higher = more cleavage, active = 3.5 or more, inactive = 1 or less, 8 variable residues between constant flanks
# measurement.context: 30 min
This is one part of the list. How many sequences the whole screen found active is unknown.
measurement.kind: furin cleavage Z-score

>>> endpoint_value("CARPPREEGKAGNASASA [FS-2438]")
-0.558
>>> endpoint_value("CARLLRSLTHAGNASASA [FS-2993]")
4.05
>>> endpoint_value("CARGPRSYPHAGNASASA [FS-2935]")
0.916
>>> endpoint_value("CAEAKRGSSSAGNASASA [FS-2476]")
0.074
>>> endpoint_value("CARNKREDRTAGNASASA [FS-2727]")
8.05
>>> endpoint_value("CAEVCCSMSYAGNASASA [HC1992]")
0.528
>>> endpoint_value("CARLLRDADDAGNASASA [FS-2278]")
-0.464
>>> endpoint_value("CAGNITRVESAGNASASA [HC1280]")
1.72
>>> endpoint_value("CAYYRGLDVSAGNASASA [HC869]")
-0.42
>>> endpoint_value("CATTPWSGSWAGNASASA [HC47]")
-1.02
>>> endpoint_value("CARVLRENGKAGNASASA [FS-3119]")
0.807
>>> endpoint_value("CASVPCHRPSAGNASASA [HC2317]")
0.912
>>> endpoint_value("CAVVACSMSYAGNASASA [HC2023]")
1.35
>>> endpoint_value("CAISQAEAALAGNASASA [HC531]")
-1.7
>>> endpoint_value("CAREKRKNRTAGNASASA [FS-1888]")
-0.32
